protocol.notes: absorption spectrum (maximum absorption wavelength, molar extinction coefficient)
Type: physicochemical
Measured molar extinction coefficient, listed per entry for reference.

[
  {
    "compound": "COc1c2c3c4c(c(NO)c(=O)c5c(O)cc(OC)c(c6c(OC)cc(NO)c(c1=O)c63)c54)C=C(C)C2 [HC-37d]",
    "molar extinction coefficient": "32,000 M^−1cm^−1"
  },
  {
    "compound": "CCNc1c(NC2CCCC2)c2c(=O)cc(OC)c3c4c(OC)cc(=O)c5c(O)c(OC)c6c(c(c1C=C(C)C6C(C)=O)c23)c54 (centres unmarked) [HB-44a]",
    "molar extinction coefficient": "21,500 M^−1cm^−1"
  },
  {
    "compound": "COCCOCCOCCOCCOCCNC(=O)C1CCC(CNc2c(O)c3c(=O)cc(OC)c4c5c(OC)cc(=O)c6c(NCC7CCC(C(=O)NCCOCCOCCOCCOCCOC)CC7)c(OC)c7c(c(c2C=C(C)C7)c34)c65)CC1 (centres unmarked) [HC-13b-NH-PEG4]",
    "molar extinction coefficient": "30,000 M^−1cm^−1"
  },
  {
    "compound": "COCCOCCOCCOCCOCCOCCOCCC(=O)OCCOCCNc1c2c3c4c(c(OC)c(=O)c5c(NCCOCCOC(=O)CCOCCOCCOCCOCCOCCOCCOC)cc(OC)c(c6c(OC)cc(O)c(c1=O)c63)c54)CC(C)=C2 [HC-1d-PEG6]",
    "molar extinction coefficient": "34,500 M^−1cm^−1"
  },
  {
    "compound": "COc1c2c3c4c(c(NCC5CCC(C(=O)O)CC5)c(=O)c5c(O)cc(OC)c(c6c(OC)cc(NCC7CCC(C(=O)O)CC7)c(c1=O)c63)c54)C=C(C)C2C(C)=O (centres unmarked) [HB-13d]",
    "molar extinction coefficient": "28,000 M^−1cm^−1"
  },
  {
    "compound": "COc1c2c3c4c(c(NCCCCS(=O)(=O)O)c(=O)c5c(O)cc(OC)c(c6c(OC)cc(NCCCCS(=O)(=O)O)c(c1=O)c63)c54)C=C(C)C2C(C)=O (centres unmarked) [HB-11d-C4-SO3H]",
    "molar extinction coefficient": "30,500 M^−1cm^−1"
  },
  {
    "compound": "COCCOCCC(=O)OC1CCC(Nc2c(NC3CCC(OC(=O)CCOCCOC)C3)c3c(=O)cc(OC)c4c5c(OC)cc(=O)c6c(O)c(OC)c7c(c(c2C=C(C)C7C(C)=O)c34)c65)C1 (centres unmarked) [HB-20a-PEG1]",
    "molar extinction coefficient": "31,000 M^−1cm^−1"
  },
  {
    "compound": "COc1c(NC2CCCC(C(=O)O)C2)c2c(=O)cc(OC)c3c4c(OC)cc(=O)c5c(O)c(NC6CCCC(C(=O)O)C6)c6c(c(c1C(C(C)=O)C(C)=C6)c23)c54 (centres unmarked) [HB-15b]",
    "molar extinction coefficient": "27,000 M^−1cm^−1"
  },
  {
    "compound": "COc1c(NCCCCS(=O)(=O)O)c2c(=O)cc(OC)c3c4c(OC)cc(=O)c5c(O)c(NCCCCS(=O)(=O)O)c6c(c(c1C(C(C)=O)C(C)=C6)c23)c54 (centres unmarked) [HB-11b-C4-SO3H]",
    "molar extinction coefficient": "30,500 M^−1cm^−1"
  },
  {
    "compound": "COc1c2c3c4c(c(NCCOCCO)c(=O)c5c(NCCOCCO)cc(OC)c(c6c(OC)cc(O)c(c1=O)c63)c54)C=C(C)C2 [HC-1c]",
    "molar extinction coefficient": "30,000 M^−1cm^−1"
  },
  {
    "compound": "COC(=O)C(CO)Nc1c(NC(CO)C(=O)OC)c2c(=O)cc(OC)c3c4c(OC)cc(=O)c5c(O)c(OC)c6c(c(c1C=C(C)C6C(C)=O)c23)c54 (centres unmarked) [HB-24a]",
    "molar extinction coefficient": "20,500 M^−1cm^−1"
  }
]

* * *

Measured maximum absorption wavelength, listed per entry for reference.
protocol.notes: absorption spectrum (maximum absorption wavelength, molar extinction coefficient)
Assay type: physicochemical
parameter: maximum absorption wavelength (nm)

[
  {
    "molecule": "COc1c(NCc2cccc[n+]2CCCC(=O)O)c2c(=O)cc(OC)c3c4c(OC)cc(=O)c5c(O)c(NCc6cccc[n+]6CCCC(=O)O)c6c(c(c1C(C(C)=O)C(C)=C6)c23)c54 (centres unmarked) [HB-38b-N—COOH]",
    "readout.value": 620
  },
  {
    "molecule": "COCCOCCC(=O)OCCNc1c(NCCOC(=O)CCOCCOC)c2c(=O)cc(OC)c3c4c(OC)cc(=O)c5c(O)c(OC)c6c(c(c1C=C(C)C6)c23)c54",
    "readout.value": 622
  },
  {
    "molecule": "COc1c2c3c4c(c(NC5CCC(C(=O)O)CC5)c(=O)c5c(O)cc(OC)c(c6c(OC)cc(NC7CCC(C(=O)O)CC7)c(c1=O)c63)c54)C=C(C)C2C(C)=O (centres unmarked) [HB-14d]",
    "readout.value": 623
  },
  {
    "molecule": "COCCOCCOCCOCCOCCOCCOCCC(=O)N1CCC(CNc2c3c4c5c(c(OC)c(=O)c6c(O)cc(OC)c(c7c(OC)c(Br)c(NCC8CCN(C(=O)CCOCCOCCOCCOCCOCCOCCOC)CC8)c(c2=O)c47)c65)C(C(C)=O)C(C)=C3)CC1 (centres unmarked) [HB-31c-Br-PEG6]",
    "readout.value": 631
  },
  {
    "molecule": "COCCOCCOCCOCCOCCOCCOCCC(=O)OCCNc1c2c3c4c(c(OC)c(=O)c5c(NCCOC(=O)CCOCCOCCOCCOCCOCCOCCOC)cc(OC)c(c6c(OC)cc(O)c(c1=O)c63)c54)CC(C)=C2",
    "readout.value": 624
  },
  {
    "molecule": "COCCOCCOCCOCCOCCOCCOCCOCCOCCOCCOCCOCCOCCOCCOCCOCCOC(=O)C1CCC(CNc2c3c4c5c(c(OC)c(=O)c6c(NCC7CCC(C(=O)OCCOCCOCCOCCOCCOCCOCCOCCOCCOCCOCCOCCOCCOCCOCCOCCOC)CC7)cc(OC)c(c7c(OC)cc(O)c(c2=O)c74)c65)C(C(C)=O)C(C)=C3)CC1 (centres unmarked) [HB-13d-PEG16]",
    "readout.value": 624
  },
  {
    "molecule": "COCCOC(=O)C1CCC(Nc2c(NC3CCC(C(=O)OCCOC)C3)c3c(=O)cc(OC)c4c5c(OC)cc(=O)c6c(O)c(OC)c7c(c(c2C=C(C)C7C(C)=O)c34)c65)C1 (centres unmarked) [HB-19a-PEG1]",
    "readout.value": 624
  },
  {
    "molecule": "COc1c(NC2CCCCC2C(=O)O)c2c(=O)cc(OC)c3c4c(OC)cc(=O)c5c(O)c(NC6CCCCC6C(=O)O)c6c(c(c1C(C(C)=O)C(C)=C6)c23)c54 (centres unmarked) [HB-16b]",
    "readout.value": 625
  },
  {
    "molecule": "COCCOCCNC(=O)C1CCC(CNc2c(NCC3CCC(C(=O)NCCOCCOC)CC3)c3c(=O)cc(OC)c4c5c(OC)cc(=O)c6c(O)c(OC)c7c(c(c2C=C(C)C7)c34)c65)CC1 (centres unmarked) [HC-13a-NH-PEG1]",
    "readout.value": 624
  },
  {
    "molecule": "COc1c(NC(CCC(=O)O)C(=O)O)c2c(=O)cc(OC)c3c4c(OC)cc(=O)c5c(O)c(NC(CCC(=O)O)C(=O)O)c6c(c(c1C(C(C)=O)C(C)=C6)c23)c54 (centres unmarked) [HB-28b]",
    "readout.value": 620
  },
  {
    "molecule": "COc1c(NCCCC(=O)O)c2c(=O)cc(OC)c3c4c(OC)cc(=O)c5c(O)c(NCCCC(=O)O)c6c(c(c1C(C(C)=O)C(C)=C6)c23)c54 (centres unmarked)",
    "readout.value": 618
  },
  {
    "molecule": "COc1c2c3c4c(c(NCc5ccccn5)c(=O)c5c(O)cc(OC)c(c6c(OC)cc(NCc7ccccn7)c(c1=O)c63)c54)C=C(C)C2C(C)=O (centres unmarked) [HB-38d]",
    "readout.value": 624
  },
  {
    "molecule": "COc1c2c3c4c(c(NCc5cccc[n+]5C)c(=O)c5c(O)cc(OC)c(c6c(OC)cc(NCc7cccc[n+]7C)c(c1=O)c63)c54)C=C(C)C2C(C)=O (centres unmarked) [HB-38d-N^+]",
    "readout.value": 626
  },
  {
    "molecule": "COCCOCCOCCOCCOCCOCCOCCC(=O)OC1CCC(Nc2c(O)c3c(=O)cc(OC)c4c5c(OC)cc(=O)c6c(NC7CCC(OC(=O)CCOCCOCCOCCOCCOCCOCCOC)C7)c(OC)c7c(c(c2C=C(C)C7C(C)=O)c34)c65)C1 (centres unmarked) [HB-20b-PEG6]",
    "readout.value": 624
  },
  {
    "molecule": "COC(=O)C(CO)Nc1c2c3c4c(c(OC)c(=O)c5c(O)cc(OC)c(c6c(OC)cc(NC(CO)C(=O)OC)c(c1=O)c63)c54)C(C(C)=O)C(C)=C2 (centres unmarked) [HB-24c]",
    "readout.value": 622
  },
  {
    "molecule": "COc1c(O)c2c(=O)cc(OC)c3c4c(OC)cc(=O)c5c(NCC[N+]67CC[N+](C)(CC6)CC7)c(NCC[N+]67CC[N+](C)(CC6)CC7)c6c(c(c1C(C(C)=O)C(C)=C6)c23)c54 (centres unmarked) [HB-41a]",
    "readout.value": 622
  },
  {
    "molecule": "COc1c2c3c4c(c(NCCNCCOCCO)c(=O)c5c(O)cc(OC)c(c6c(OC)cc(NCCNCCOCCO)c(c1=O)c63)c54)C=C(C)C2C(C)=O (centres unmarked)",
    "readout.value": 625
  },
  {
    "molecule": "COc1c(NCCO)c2c(=O)cc(OC)c3c4c(OC)cc(=O)c5c(O)c(NCCO)c6c(c(c1CC(C)=C6)c23)c54",
    "readout.value": 624
  },
  {
    "molecule": "COCCOCCN1CCC(CNc2c(NCC3CCN(CCOCCOC)CC3)c3c(=O)cc(OC)c4c5c(OC)cc(=O)c6c(O)c(OC)c7c(c(c2C=C(C)C7C(C)=O)c34)c65)CC1 (centres unmarked) [HB-32a-PEG1]",
    "readout.value": 622
  },
  {
    "molecule": "COc1c2c3c4c(c(NCC5CCC(C(=O)OCCCC[P+](c6ccccc6)(c6ccccc6)c6ccccc6)CC5)c(=O)c5c(O)cc(OC)c(c6c(OC)cc(NCC7CCC(C(=O)OCCCC[P+](c8ccccc8)(c8ccccc8)c8ccccc8)CC7)c(c1=O)c63)c54)C=C(C)C2 (centres unmarked) [HC-30d-C4-PPh3^+]",
    "readout.value": 630
  }
]
